B1: RAD51 (parent)
chain: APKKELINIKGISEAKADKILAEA

variants of: B1; assay: protein stability index of a GFP-peptide fusion (GPS, HEK-293T) (PSI 1-6); higher = more stable; details: c terminus: a fixed tail appended;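 also: lentivirally expressed fusions sorted by FACS into six bins by GFP to DsRed ratio, PSI derived from sequencing read proportions per bin multiplied by bin number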
Listed here are variants together with their documented protein stability index.
measurement.name: protein stability index

macromolecule_sequence="APKKELINIKGISEAKADKILVEA [A22V]" measurement_name="protein stability index" assay_result=4.79
macromolecule_sequence="APKKELINIKGISEAKADKIFAEA [L21F]" measurement_name="protein stability index" assay_result=4.13
macromolecule_sequence="APKKELINIKGIPEAKADKILAEA [S13P]" measurement_name="protein stability index" assay_result=4.88
macromolecule_sequence="APKKELINRKGISEAKADKILAEA [I9R]" measurement_name="protein stability index" assay_result=5.12
macromolecule_sequence="APKKELINIRGISEAKADKILAEA [K10R]" measurement_name="protein stability index" assay_result=4.2
macromolecule_sequence="APKKELINIKGISEAKADKYLAEA [I20Y]" measurement_name="protein stability index" assay_result=4.61
macromolecule_sequence="APKKECINIKGISEAKADKILAEA [L6C]" measurement_name="protein stability index" assay_result=4.97
macromolecule_sequence="APKKELINIKGISEAKADKILAES [A24S]" measurement_name="protein stability index" assay_result=4.75
macromolecule_sequence="APKIELINIKGISEAKADKILAEA [K4I]" measurement_name="protein stability index" assay_result=4.25
macromolecule_sequence="APKKELINQKGISEAKADKILAEA [I9Q]" measurement_name="protein stability index" assay_result=4.8
macromolecule_sequence="APKKELINIKFISEAKADKILAEA [G11F]" measurement_name="protein stability index" assay_result=3.69
macromolecule_sequence="APKKELINIKGISEAKADKILAEI [A24I]" measurement_name="protein stability index" assay_result=3.61
macromolecule_sequence="APKKELINIAGISEAKADKILAEA [K10A]" measurement_name="protein stability index" assay_result=4.56
macromolecule_sequence="APKKELINIKGISEAKAMKILAEA [D18M]" measurement_name="protein stability index" assay_result=3.31
macromolecule_sequence="APKKELINIKGISEAKADKMLAEA [I20M]" measurement_name="protein stability index" assay_result=5.16
macromolecule_sequence="FPKKELINIKGISEAKADKILAEA [A1F]" measurement_name="protein stability index" assay_result=3.87
macromolecule_sequence="APKKELINIKGISEAKADKILAYA [E23Y]" measurement_name="protein stability index" assay_result=3.37
macromolecule_sequence="APKKEYINIKGISEAKADKILAEA [L6Y]" measurement_name="protein stability index" assay_result=4.46
macromolecule_sequence="APKKELINIKGISFAKADKILAEA [E14F]" measurement_name="protein stability index" assay_result=3.48
macromolecule_sequence="APKKELINIKGISEAKADKILHEA [A22H]" measurement_name="protein stability index" assay_result=4.52
macromolecule_sequence="APKKELINIKGFSEAKADKILAEA [I12F]" measurement_name="protein stability index" assay_result=4.33
macromolecule_sequence="APKKELPNIKGISEAKADKILAEA [I7P]" measurement_name="protein stability index" assay_result=5.04
